Tested on: IRAK3
Conditions: concentration: 1 μM, replicates: in singlicate; n = 1;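 further: KINOMEscan kinase panel screen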
// values below are reported %Inh
Enter your answer as a number in %; do not include the unit.

// known answers, use as guide
Cc1cc(N2CCC(NS(=O)(=O)c3ccc(F)cc3)CC2)nc(Nc2cccc(C#N)c2)n1.O=C(O)C(F)(F)F | 0
CC(C)(C)OC(=O)NC1CCCN(c2cc(-c3ccc4c(N)n[nH]c4c3)nc(N)n2)C1 (centres unmarked) | 0
CNc1nccc(-c2c(-c3ccc(F)cc3)ncn2C2CCN(C)CC2)n1 | 0
CN1c2ccc(-c3ccc(C(=O)NCCO)cc3)cc2-c2[nH]ncc2S1(=O)=O | 44
Cn1ccc2ncnc(Oc3ccc(NC(=O)Nc4cccnc4)c(Cl)c3)c21 | 12

Inquiry: # get_value(readout= %Inh, system= IRAK3) for Fc1ccc(-c2ncn(CCCNCc3ccccc3)c2-c2ccncc2)cc1
Reply text: 9

Inquiry: # get_value(readout= %Inh, system= IRAK3) for CSc1nn2c(=O)cc(N3CCOCC3)nc2n1Cc1cccc(Cl)c1Cl
Reply text: 0

Inquiry: # get_value(readout= %Inh, system= IRAK3) for Cl.Fc1ccccc1COc1ccc(Nc2ncnc3ccc(-c4nnc(C(F)(F)F)o4)cc23)cc1Cl
Reply text: 0

###

Test system: YSK1
Construct: gene STK25
Conditions: concentration: 1 μM, replicates: in singlicate; n = 1
// values below are reported %Inh
Enter your answer as a number in %; do not include the unit.

// known answers, use as guide
Cl.c1ccc(Cn2ncc3cc(Nc4ncnc5ccccc45)ccc32)cc1 [GW273749] | 17
C[C@H]1CC[C@@H](C(=O)Nc2ccccc2)CN1c1cc(-c2ccc3c(N)n[nH]c3c2)nc(N)n1 [GSK2283293] | 0
O=C(c1ccc(-c2cc(-c3c[nH]nc3-c3ccccn3)ccn2)cc1)N1CCCC1 [GW792479] | 0
COc1ccc(-c2oc3ncnc(N)c3c2-c2ccc(OC)cc2)cc1 [SB-589132] | 6
CNc1nccc(-c2c(-c3ccc(F)cc3)ncn2CCCN2CCOCC2)n1 [SB-222516] | 0

Inquiry: # %Inh lookup, item Nc1nc(-c2ccccn2)c(-c2ccnc3ccccc23)s1 [GW548057]
Reply text: 14

Inquiry: # %Inh lookup, item CSc1nn2c(=O)cc(N3CCOCC3)nc2n1Cc1cccc(Cl)c1Cl [GSK2347225]
Reply text: 12

Inquiry: # %Inh lookup, item COc1cc2c(Nc3cccc(NC(=O)c4ccccc4)c3)ncnc2cc1OCCCN1CCOCC1 [GSK223810]
Reply text: 12

Inquiry: # %Inh lookup, item Cn1cc(-c2ccc3c(c2)CCN3C(=O)Cc2cccc(C(F)(F)F)c2)c2c(N)ncnc21 [GSK2606414]
Reply text: 0

###

System: MAST1
Conditions: concentration: 1 μM, replicates: in singlicate; n = 1
// values below are reported %Inh
Enter your answer as a number in %; do not include the unit.

Inquiry: # %Inh lookup, item O=C(Nc1ccccc1)Nc1ccc(Oc2ccc3nccn3n2)cc1
Reply text: 0

Inquiry: # %Inh lookup, item Nc1nc(-c2ccccn2)c(-c2ccnc3ccccc23)s1
Reply text: 9

Inquiry: # %Inh lookup, item FC(F)(F)c1ccc(-c2cc(-c3c[nH]nc3-c3ccccn3)ccn2)cc1
Reply text: 0

Inquiry: # %Inh lookup, item CC(C)(C)c1ccc(-n2cnc3c(N)ncnc32)cc1
Reply text: 0
